Tested on: HEK293-SIE STAT3 Y640F
Test: drug sensitivity score (inhibition of STAT3 luciferase reporter); higher = stronger inhibition
Conditions: 6 h; IL6 0 ng/ml
measured parameter: drug sensitivity score (DSS)
Field format: number, assumed DSS, no unit text.

molecule	target	unit abbrev	drug sensitivity score
COc1ccccc1S(=O)(=O)Nc1ccc2c(c1)CN(C)C(=O)N2 [PFI-1]	HEK293-SIE STAT3 Y640F	DSS	0
N#CC[C@H](C1CCCC1)n1cc(-c2ncnc3[nH]ccc23)cn1 [Ruxolitinib]	HEK293-SIE STAT3 Y640F	DSS	13.2

Request: Any idea what its drug sensitivity score is? The molecule is CC(C)NC[C@@H](C(=O)N1CCN(c2ncnc3c2[C@H](C)C[C@H]3O)CC1)c1ccc(Cl)cc1 [GDC-0068]
Result: 0.85

Request: Param item: N#CCNC(=O)c1ccc(-c2ccnc(Nc3ccc(N4CCOCC4)cc3)n2)cc1 [Momelotinib]
Result: 12.4
